target: T1, HLA class I molecule A02.01; experiment: pMHC-I dissociation half-life, 125I-b2m
T1 construct: Purified MHC class I complex; also called HLA-A02:01
Experimental Readout: Stability (T1/2 (h))

IMSLWGLVS (also called NAB: STAT6 (variant 1 of Chmielecki et al.))	0 h
LLALWECSL (also called MSH3(-1))	4 h
FQNGKMALS (also called FRG1B, L52S)	0 h

Lab note: next binder to report on.
Challenge: Look up Stability (T1/2 (h)): HMNIANLLGA (also called KIT, V654A)
Response given: 0 h
